- assay_summary: chemical genetic growth profiling, strain panel (AID 1159580);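 note: tested at 20 µM; growth read once vehicle control cultures reached saturation at 30 °C; 1 = growth at the plate median or of vehicle wells; lower values mean less growth of the strain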
- experimental_setup: S. cerevisiae deletion strains, growth OD, locus YLR262C, strain YPT6, active compounds read low
About 2,000 (36%) of roughly 5,500 compounds were called active. Inconclusive results (about 18%) are left out. Some of the results follow.
So I've got a bunch of compounds here, and I need their normalized growth values.
// keep it numeric: no unit symbol after the value

Query :: Please indicate normalized growth recorded for CC(=O)Oc1cccc(O)c1
Result :: 1.05

Query :: Please indicate normalized growth recorded for NCC(N)C(=O)c1ccccc1 (stereo unspecified)
Result :: 1.06

Query :: Please indicate normalized growth recorded for Oc1c(Cl)cc(Cl)cc1Sc1cc(Cl)cc(Cl)c1O
Result :: 1

Query :: Please indicate normalized growth recorded for O=C(OCc1ccccc1)c1ccccc1
Result :: 0.839

Query :: Please indicate normalized growth recorded for COc1cc(C(C)=O)cc(OC)c1O
Result :: 1.07

Query :: Please indicate normalized growth recorded for COc1cc(C/C=C/c2ccccc2)c(OC)cc1O
Result :: 0.967

Query :: Please indicate normalized growth recorded for CC(=O)Oc1ccc(/C=C/c2cc(OC(C)=O)cc(OC(C)=O)c2)cc1
Result :: 0.925

Query :: Please indicate normalized growth recorded for N#CCCC1(CCC#N)c2ccccc2-c2ccccc21
Result :: 1.01

Query :: Please indicate normalized growth recorded for CC(=O)Oc1ccc(C(c2ccc(OC(C)=O)cc2)c2ccccn2)cc1
Result :: 0.969

Query :: Please indicate normalized growth recorded for CN(C)[C@@H]1C(=O)C(C(N)=O)=C(O)[C@@]2(O)C(=O)C3=C(O)c4c(O)ccc(Cl)c4[C@@H](O)[C@H]3C[C@@H]12
Result :: 1.01

Query :: Please indicate normalized growth recorded for C=C1c2cccc(O)c2C(O)=C2C(=O)[C@]3(O)C(O)=C(C(N)=O)C(=O)[C@@H](N(C)C)[C@@H]3[C@@H](O)[C@H]12
Result :: 0.967

* * *

So I've got a bunch of compounds here, and I need their normalized growth values.
- assay_summary: chemical genetic growth profiling, strain panel (AID 1159580);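 note: tested at 20 µM; growth read once vehicle control cultures reached saturation at 30 °C; 1 = growth at the plate median or of vehicle wells; lower values mean less growth of the strain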
- experimental_setup: S. cerevisiae deletion strains, growth OD, locus YOR231W, strain MKK1, active compounds read low
Screen size: about 5,500 compounds; about 2,000 (36%) were called active. Roughly 18% stayed inconclusive and do not appear here. Some of the results follow.
// keep it numeric: no unit symbol after the value

Query :: Please indicate normalized growth recorded for CCN(CC)CCOC(=O)C1(C2CCCCC2)CCCCC1
Result :: 1.04

Query :: Please indicate normalized growth recorded for CC(C)CCCC(C)C1CCC2C3CC(=O)[C@H]4C[C@@H](O)CC[C@]4(C)C3CC[C@]12C (some centres not stated)
Result :: 1.02

Query :: Please indicate normalized growth recorded for CCN(CC)CCOCCOC(=O)C1(c2ccccc2)CCCC1
Result :: 0.983

Query :: Please indicate normalized growth recorded for CC(C)CCCC(C)C1CCC2C3CC[C@H]4C[C@H](O)CC[C@]4(C)C3CC[C@]12C (some centres not stated)
Result :: 0.991

Query :: Please indicate normalized growth recorded for CC(C)CCCC(C)C1CCC2C3=CC[C@H]4C[C@@H](O)CC[C@]4(C)C3CC[C@@]21C (some centres not stated)
Result :: 0.976

Query :: Please indicate normalized growth recorded for CC(C)CCCC(C)[C@H]1CCC2C3CC=C4CC(=O)CC[C@]4(C)C3CC[C@@]21C (some centres not stated)
Result :: 0.965

Query :: Please indicate normalized growth recorded for CC(C)CCCC(C)C1CCC2C3C[C@@H](O)[C@@]4(O)C[C@@H](O)CC[C@]4(C)C3CC[C@]12C (some centres not stated)
Result :: 1.06
